Can you tell me pIC50 for the items I'm about to list?
Tested on: cellular calpains in C2C12 myoblasts
assay: Calpain inhibition assay in C2C12 myoblasts
Format: cell-based
conditions: 2 h incubation, calcium ionophore Br-A-23187, read-out: Calp I IC50 Myoblast
One number for each entry, as −log10 of the molar value.

Hi, could you look up pIC50 for each item in my list?
1. CCNC(=O)C(=O)[C@H](Cc1ccc(Br)cc1)NC(=O)[C@H](CC(C)C)NC(=O)CCCCC1CCS[S+]1[O-] (stereo partly shown)
2. CC(C)[C@H](NC(=O)CNC(=O)CCCCC1CCSS1)C(=O)N[C@@H](Cc1ccccc1)C(=O)C(=O)NCc1ccccc1 (stereo partly shown)

Resp:
1. 5.82
2. 5.60

* * *

Test system: cellular calpains in C2C12 myoblasts
assay: Calpain inhibition assay in C2C12 myoblasts
Assay type: cell-based
conditions: 2 h incubation, calcium ionophore Br-A-23187, read-out: Calp I IC50 Myoblast
value_kind: log10 IC50 (log10 of the value in nM)
In our notation, the value equals log10 of IC50 in nM.

molecule="COc1ccc(C[C@H](NC(=O)[C@@H](NC(=O)CCCCC2CCS[S+]2[O-])C(C)C)C(=O)C(=O)O)cc1 (stereo partly drawn) [Example 89]" measured_on="cellular calpains in C2C12 myoblasts" value_kind="log10 IC50" reported_result=3.60
molecule="CCNC(=O)C(=O)[C@H](Cc1ccc(C)cc1)NC(=O)[C@@H](NC(=O)CCCCC1CCSS1)C(C)C (stereo partly drawn) [Example 104]" measured_on="cellular calpains in C2C12 myoblasts" value_kind="log10 IC50" reported_result=2.54
molecule="CCNC(=O)C(=O)[C@H](Cc1ccc(Cl)cc1)NC(=O)[C@H](CC(C)C)NC(=O)CCCCC1CCSS1 (stereo partly drawn) [Example 15]" measured_on="cellular calpains in C2C12 myoblasts" value_kind="log10 IC50" reported_result=3.40
molecule="Cc1ccc(S(=O)(=O)CNC(=O)C(=O)[C@H](Cc2ccc(Cl)cc2)NC(=O)[C@H](CC(C)C)NC(=O)CCCCC2CCSS2)cc1 (stereo partly drawn) [Example 25]" measured_on="cellular calpains in C2C12 myoblasts" value_kind="log10 IC50" reported_result=3.18
molecule="CCNC(=O)C(=O)[C@H](Cc1ccc(Br)cc1)NC(=O)[C@H](CC(C)C)NC(=O)CCCCC1SC[C@@H]2NC(=O)N[C@H]12 (stereo partly drawn) [Example 164]" measured_on="cellular calpains in C2C12 myoblasts" value_kind="log10 IC50" reported_result=3.30

Here are 7 molecules. What values of log10 IC50 were reported for them?
1. CCNC(=O)C(=O)[C@H](CC(C)C)NC(=O)[C@@H](NC(=O)CCCCC1CCSS1)C(C)C (stereo partly drawn) [Example 157]
2. CCNC(=O)C(=O)[C@H](Cc1ccc(Cl)cc1)NC(=O)[C@@H](NC(=O)CNC(=O)CCCCC1CCSS1)C(C)C (stereo partly drawn) [Example 169]
3. CCNC(=O)C(=O)[C@H](Cc1ccc(OC)cc1)NC(=O)[C@@H](NC(=O)C1(NC(=O)CCCCC2CCSS2)CCCCC1)C(C)C (stereo partly drawn) [Example 195]
4. CCNC(=O)C(=O)[C@H](Cc1ccccc1)NC(=O)[C@@H](NC(=O)CCCCC1CCSS1)C(C)C (stereo partly drawn) [Example 138]
5. CCNC(=O)C(=O)[C@H](Cc1ccc(Cl)cc1)NC(=O)[C@@H](NC(=O)CCCCNC(=O)CCCCC1CCSS1)C(C)C (stereo partly drawn) [Example 175]
6. CCNC(=O)C(=O)[C@H](Cc1ccc(F)cc1)NC(=O)[C@H](CC(C)C)NC(=O)CCCCC1CCS[S+]1[O-] (stereo partly drawn) [Example 40]
7. CCNC(=O)C(=O)[C@H](Cc1ccc(Cl)cc1)NC(=O)[C@@H](NC(=O)CCCCC1CCS[S+]1[O-])C(C)C (stereo partly drawn) [Example 2]

Resp:
[2.40, 3.00, 3.18, 3.54, 4.30, 4.18, 3.78]

* * *

Test system: cellular calpains in C2C12 myoblasts
assay: Calpain inhibition assay in C2C12 myoblasts
Format: cell-based
conditions: 2 h incubation, calcium ionophore Br-A-23187, read-out: Calp I IC50 Myoblast
value_kind: IC50 (µM)
One number for each entry, in µM.

Please review the entries below; each comes with its answer.
compound="CCNC(=O)C(=O)[C@H](CC1CCCCC1)NC(=O)[C@@H](NC(=O)CCCCC1CCSS1)C(C)C (some centres unmarked)" reported_result=3
compound="CCNC(=O)C(=O)[C@H](Cc1cccc(C(F)(F)F)c1)NC(=O)[C@H](CC(C)C)NC(=O)CCCCC1CCSS1 (some centres unmarked)" reported_result=15

Look at each compound and report its IC50.
1. CCNC(=O)C(=O)[C@H](Cc1cccs1)NC(=O)[C@@H](NC(=O)CCCCC1CCSS1)C(C)C (some centres unmarked)
2. CCNC(=O)C(=O)[C@H](Cc1ccc(OC)cc1)NC(=O)[C@@H](NC(=O)CCCCC1SC[C@@H]2NC(=O)N[C@H]12)C(C)C (some centres unmarked)
3. CCNC(=O)C(=O)[C@H](CC1CCCCC1)NC(=O)[C@H](CC(C)C)NC(=O)CCCCC1CCSS1 (some centres unmarked)

Resp:
6
11
1.8

* * *

The following are reported IC50 results, target or system human μ-calpain (Homo sapiens).
Answers are plain numbers, in nM.

Examples from the recorded data:
molecule="CCNC(=O)C(=O)[C@H](Cc1ccc(Cl)cc1)NC(=O)[C@H](CC(C)C)NC(=O)CNC(=O)CCCCC1CCSS1 (stereo partly drawn) [Example 176]" measured_on="human μ-calpain (Homo sapiens)" reported_result=40
molecule="CCNC(=O)C(=O)[C@H](Cc1cccs1)NC(=O)[C@@H](NC(=O)CCCCC1CCSS1)C(C)C (stereo partly drawn) [Example 145]" measured_on="human μ-calpain (Homo sapiens)" reported_result=100
molecule="Cc1ccc(S(=O)(=O)CNC(=O)C(=O)[C@H](Cc2ccc(Cl)cc2)NC(=O)[C@H](CC(C)C)NC(=O)CCCCC2CCSS2)cc1 (stereo partly drawn) [Example 25]" measured_on="human μ-calpain (Homo sapiens)" reported_result=120
molecule="CCNC(=O)C(=O)[C@H](Cc1ccc(C)cc1)NC(=O)[C@@H](NC(=O)CCCCC1CCSS1)C(C)CC (stereo partly drawn) [Example 116]" measured_on="human μ-calpain (Homo sapiens)" reported_result=300
molecule="CCNC(=O)C(=O)[C@H](Cc1ccc(OC)cc1)NC(=O)[C@@H](NC(=O)CCCCC1CCS[S+]1[O-])C(C)C (stereo partly drawn) [Example 85]" measured_on="human μ-calpain (Homo sapiens)" reported_result=80

Req: Given the molecule CCNC(=O)C(=O)[C@H](Cc1ccccc1)NC(=O)[C@@H](NC(=O)CCCCC1CCSS1)C(C)C (stereo partly drawn) [Example 138] , write its reported IC50.
Resp: 80

* * *

Tested on: cellular calpains in C2C12 myoblasts
assay: Calpain inhibition assay in C2C12 myoblasts
Type: cell-based
conditions: 2 h incubation, calcium ionophore Br-A-23187, read-out: Calp I IC50 Myoblast
Answer each item with its documented pIC50.
Numbers only, as −log10 of the molar value.

molecule="CCNC(=O)C(=O)[C@H](Cc1ccc(Cl)cc1)NC(=O)[C@H](CC(C)C)NC(=O)CCCCC1CCS[S+]1[O-] (some centres unmarked) [Example 16]" value_kind=pIC50 reported_result=5.70

I would be grateful if you could provide pIC50 for each of the following entries.
1. CCNC(=O)C(=O)[C@H](Cc1ccc(OC)cc1)NC(=O)[C@@H](NC(=O)CCCCC1CCS[S+]1[O-])C(C)C (some centres unmarked) [Example 85]
2. CCNC(=O)C(=O)[C@H](Cc1ccc(Br)cc1)NC(=O)[C@@H](NC(=O)CNC(=O)CCCCC1CCS[S+]1[O-])C(C)C (some centres unmarked) [Example 184]
3. CCNC(=O)C(=O)[C@@H](NC(=O)[C@@H](NC(=O)CCCCC1CCSS1)C(C)C)c1ccccc1 (some centres unmarked) [Example 153]
4. CCNC(=O)C(=O)[C@H](Cc1ccc(C#N)cc1)NC(=O)[C@@H](NC(=O)CCCCC1CCSS1)C(C)C (some centres unmarked) [Example 130]

Resp:
1: 6.05; 2: 5.26; 3: 5.70; 4: 5.30
